Values compiled from patent US10259810B2.

biological target: CFTR ΔF508 (Homo sapiens, UniProt P13569, DEL508-508); construct: bronchial epithelial cells isolated from CF patients homozygous for the CFTR ΔF508 mutation; McGill University; Asterand; University of North Carolina hAEC-CF; host or cells: primary human bronchial epithelial cells from CF patients homozygous for ΔF508, differentiated at air-liquid interface; assay: Chronic TECC assay, primary bronchial epithelial cells of CF patients homozygous for CFTR ΔF508 (corrector, co-corrector and potentiator); format: cell-based; settings: chronic TECC; test compound at 3 μM; AUC = full area under the curve upon forskolin stimulation
Sequence (P13569 with tags, fused parts or gaps DEL508-508): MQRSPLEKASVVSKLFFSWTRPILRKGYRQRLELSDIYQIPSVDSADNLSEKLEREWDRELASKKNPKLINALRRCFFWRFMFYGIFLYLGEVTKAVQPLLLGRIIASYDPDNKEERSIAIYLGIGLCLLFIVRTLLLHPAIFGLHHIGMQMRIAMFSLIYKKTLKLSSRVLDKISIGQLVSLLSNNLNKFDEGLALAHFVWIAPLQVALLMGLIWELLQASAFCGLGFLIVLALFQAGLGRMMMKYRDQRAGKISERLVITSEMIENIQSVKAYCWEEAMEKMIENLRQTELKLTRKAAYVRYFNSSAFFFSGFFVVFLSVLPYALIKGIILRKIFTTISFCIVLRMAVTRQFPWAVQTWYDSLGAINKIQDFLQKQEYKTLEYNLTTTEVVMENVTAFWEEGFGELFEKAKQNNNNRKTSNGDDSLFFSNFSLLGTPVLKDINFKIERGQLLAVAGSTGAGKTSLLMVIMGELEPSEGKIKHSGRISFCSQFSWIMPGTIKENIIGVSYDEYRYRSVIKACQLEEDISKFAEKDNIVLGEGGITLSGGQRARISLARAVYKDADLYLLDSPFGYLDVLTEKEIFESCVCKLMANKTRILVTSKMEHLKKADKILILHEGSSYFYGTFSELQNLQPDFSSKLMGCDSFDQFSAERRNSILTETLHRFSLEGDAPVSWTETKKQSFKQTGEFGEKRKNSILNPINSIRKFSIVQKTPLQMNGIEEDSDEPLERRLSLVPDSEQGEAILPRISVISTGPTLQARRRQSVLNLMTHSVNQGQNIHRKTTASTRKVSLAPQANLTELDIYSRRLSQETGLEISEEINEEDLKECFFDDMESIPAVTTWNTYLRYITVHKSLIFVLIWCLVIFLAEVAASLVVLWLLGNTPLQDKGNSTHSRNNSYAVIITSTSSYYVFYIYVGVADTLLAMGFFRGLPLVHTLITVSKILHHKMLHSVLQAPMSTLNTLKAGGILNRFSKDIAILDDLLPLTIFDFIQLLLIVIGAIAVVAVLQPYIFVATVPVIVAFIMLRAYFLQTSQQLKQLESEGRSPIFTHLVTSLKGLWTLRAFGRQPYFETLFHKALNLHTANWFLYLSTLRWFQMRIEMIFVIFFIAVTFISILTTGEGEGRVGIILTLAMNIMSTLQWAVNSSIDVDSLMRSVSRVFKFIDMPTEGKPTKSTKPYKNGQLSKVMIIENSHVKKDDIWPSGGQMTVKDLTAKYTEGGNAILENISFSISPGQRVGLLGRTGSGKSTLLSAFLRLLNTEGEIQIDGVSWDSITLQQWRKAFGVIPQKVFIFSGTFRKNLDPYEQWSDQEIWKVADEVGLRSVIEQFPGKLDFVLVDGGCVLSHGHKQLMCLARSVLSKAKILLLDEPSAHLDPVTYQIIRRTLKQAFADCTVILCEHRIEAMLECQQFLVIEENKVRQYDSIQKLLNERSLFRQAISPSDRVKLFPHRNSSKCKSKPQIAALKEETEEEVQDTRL
compounds and their reported % Activity at 3 μM (AUC**)
Return type: number; implicit unit %.

>  <Compound>
CC(C)N1CCC(c2cc(C(=O)NS(C)(=O)=O)nc3c2c(C2CCC2)nn3-c2ccc(F)cc2)CC1

>  <Test target>
CFTR ΔF508 (Homo sapiens, UniProt P13569, DEL508-508)

>  <Experimental result>
176.7495

$$$$

Consider the compound shown here: CN(C)S(=O)(=O)NC(=O)c1cc(N2CCC3C(CCN3C3CCC3)C2)c2c(C3CCC3)nn(-c3ccc(F)cc3)c2n1 (stereo not shown) What is its recorded % Activity at 3 μM (AUC**)? 387.4854

Consider the compound shown here: CN(C)S(=O)(=O)NC(=O)c1cc(N2CCC(CN3CCOCC3)CC2)c2c(C3CCC3)nn(C3CCCCC3)c2n1 What is its recorded % Activity at 3 μM (AUC**)? 462.0976

Consider the compound shown here: COC1CCN(C2CCN(c3cc(C(=O)NS(=O)(=O)N4CC(OC)C4)nc4c3c(C3CCC3)nn4-c3ccc(F)cc3)CC2)CC1 What is its recorded % Activity at 3 μM (AUC**)? 246.4648

----------
target: ΔF508-CFTR (Homo sapiens, UniProt P13569, DEL508-508); construct: host or cells: CFBE41o-, doxycycline-inducible; test: CFTR cell surface levels using HRP-tagged ΔF508-CFTR expressing CFBE cells, in the presence of a co-corrector; format: cell-based; details: HRP-tagged ΔF508-CFTR CFBE cells, in the presence of 3 μM co-corrector
Sequence (P13569 with tags, fused parts or gaps DEL508-508): as above
compounds and their reported % Activation
Return type: number; implicit unit %.

Consider the compound shown here: Cc1cc(-n2nc(C3CCC3)c3c(N4CCC(N5CCOCC5)CC4)cc(C(=O)NS(C)(=O)=O)nc32)ccc1F What is its recorded % Activation? 540.3

Consider the compound shown here: COC[C@H]1CCCN1S(=O)(=O)NC(=O)c1cc(N2CCC(N3CCOCC3)CC2)c2c(C3CCC3)nn(-c3ccc(F)cc3)c2n1 What is its recorded % Activation? 379.3

Consider the compound shown here: CN(C)S(=O)(=O)NC(=O)c1cc(N2CCC(N3CCOCC3)CC2)c2c(C3CCC3)nn(-c3ccccc3)c2n1 What is its recorded % Activation? 457.7

Consider the compound shown here: CS(=O)(=O)NC(=O)c1cc(N2CCC(CN3CCOCC3)CC2)c2c(C3CCC3)nn(-c3ccc(F)cc3)c2n1 What is its recorded % Activation? 529.58

Consider the compound shown here: CC(C)c1nn(C2CCCCC2)c2nc(C(=O)NS(C)(=O)=O)cc(-c3ccc(N4CCOC(C)(C)C4)nc3)c12 What is its recorded % Activation? 421.53

Consider the compound shown here: CC(C)c1nn(-c2cccc(N(C)C)c2)c2nc(C(=O)NS(C)(=O)=O)cc(-c3ccc(N4CCC(C#N)CC4)nc3)c12 What is its recorded % Activation? 567.7

Consider the compound shown here: COC1CCN(c2cc(C(=O)NS(=O)(=O)CCNC(=O)c3ccccc3C(=O)O)nc3c2c(C2CCC2)nn3-c2ccccc2)CC1 What is its recorded % Activation? 545

Consider the compound shown here: COCC1CCN(c2cc(C(=O)NS(=O)(=O)CCO)nc3c2c(C2CCC2)nn3-c2ccccc2)CC1 What is its recorded % Activation? 443.7

Consider the compound shown here: COC1CCN(c2cc(C(=O)NS(=O)(=O)CC(F)(F)F)nc3c2c(C2CCC2)nn3-c2ccccc2)CC1 What is its recorded % Activation? 390.43

Consider the compound shown here: CN(C)S(=O)(=O)NC(=O)c1cc(N2CCC3(CC2)CC(N2CCOCC2)CO3)c2c(C3CCC3)nn(-c3ccc(F)cc3)c2n1 (stereo not drawn) What is its recorded % Activation? 322.45

Consider the compound shown here: CN(C)S(=O)(=O)NC(=O)c1cc(N2CCC(N3CCCC(C#N)C3)CC2)c2c(C3CCC3)nn(-c3ccc(F)cc3)c2n1 (stereo not drawn) What is its recorded % Activation? 589.55

Consider the compound shown here: CS(=O)(=O)NC(=O)c1cc(N2CCC[C@@H](CO)C2)c2c(C3CCC3)nn(-c3ccccc3)c2n1 What is its recorded % Activation? 327.9

Consider the compound shown here: CC(C)c1nn(C2CCCCC2)c2nc(C(=O)NS(C)(=O)=O)cc(-c3ccc(N4CCC(C)(C#N)CC4)nc3)c12 What is its recorded % Activation? 360.15

Consider the compound shown here: COCCN1CCN(C2CCN(c3cc(C(=O)NS(=O)(=O)N(C)C)nc4c3c(C3CCC3)nn4-c3ccc(F)cc3)CC2)CC1 What is its recorded % Activation? 484.3

Consider the compound shown here: CC(C)c1nn(-c2cc(F)cc(F)c2)c2nc(C(=O)NS(C)(=O)=O)cc(-c3ccc(N4CCC(C#N)CC4)cc3)c12 What is its recorded % Activation? 496.9

Consider the compound shown here: CS(=O)(=O)NC(=O)c1cc(N2CCC(N3CCCC(C#N)C3)CC2)c2c(C3CCC3)nn(-c3ccc(F)cc3)c2n1 (stereo not drawn) What is its recorded % Activation? 708.8

Consider the compound shown here: COCC1CCN(c2cc(C(=O)NS(=O)(=O)CC#N)nc3c2c(C2CCC2)nn3-c2ccccc2)CC1 What is its recorded % Activation? 575

Consider the compound shown here: COCCS(=O)(=O)NC(=O)c1cc(N2CCC(N3CCOCC3)CC2)c2c(C3CCC3)nn(C3CCCCC3)c2n1 What is its recorded % Activation? 505.65

Consider the compound shown here: CC(C)c1nn(-c2ccc(F)cc2)c2nc(C(=O)NS(C)(=O)=O)cc(N3CCCC(C(F)F)C3)c12 (stereo not drawn) What is its recorded % Activation? 381.73

----------
compounds and their reported % Activation
biological target: ΔF508-CFTR (Homo sapiens, UniProt P13569, DEL508-508); construct: host or cells: CFBE41o-, doxycycline-inducible; assay: CFTR cell surface levels using HRP-tagged ΔF508-CFTR expressing CFBE cells, in the presence of a co-corrector; type: cell-based; conditions: HRP-tagged ΔF508-CFTR CFBE cells, in the presence of 3 μM co-corrector
Return type: number; implicit unit %.

Consider the compound shown here: COC1CCN(c2cc(C(=O)NS(C)(=O)=O)nc3c2c(C(C)C)nn3C2CCCCC2)CC1 What is its recorded % Activation? 380.65

Consider the compound shown here: COCC(COC)Oc1cc(C(=O)NS(C)(=O)=O)nc2c1c(C1CCC1)nn2-c1ccccc1 What is its recorded % Activation? 259.7

Consider the compound shown here: CN(C)S(=O)(=O)NC(=O)c1cc(N2CCC3C(CCN3C3CCC3)C2)c2c(C3CCC3)nn(-c3ccc(F)cc3)c2n1 (stereo not shown) What is its recorded % Activation? 418.4

Consider the compound shown here: CN(C)S(=O)(=O)NC(=O)c1cc(-c2ccc(CN3CCOCC3)cc2)c2c(OC3CCC3)nn(C3CCCCC3)c2n1 What is its recorded % Activation? 285.65

----------
molecular target: ΔF508-CFTR (Homo sapiens, UniProt P13569, DEL508-508); construct: host or cells: CFBE41o-, doxycycline-inducible; assay: CFTR cell surface levels using HRP-tagged ΔF508-CFTR expressing CFBE cells, in the presence of a co-corrector; assay type: cell-based; settings: HRP-tagged ΔF508-CFTR CFBE cells, in the presence of 3 μM co-corrector; read-out: EC50
Readout name: pEC50
pEC50 here is simply -log10 of the concentration when that concentration is written in mol/L.

>  <Compound>
O=C(NS(=O)(=O)N1CCCC1)c1cc(N2CCC(N3CCOCC3)CC2)c2c(C3CCC3)nn(-c3ccc(F)cc3)c2n1 [Compound 485]

>  <Test target>
ΔF508-CFTR (Homo sapiens, UniProt P13569, DEL508-508)

>  <Experimental result>
7.04

$$$$
>  <Compound>
COCC1CCN(c2cc(C(=O)NS(=O)(=O)N3CCN(C4CC4)CC3)nc3c2c(C2CCC2)nn3-c2ccc(F)cc2)CC1 [Compound 609]

>  <Test target>
ΔF508-CFTR (Homo sapiens, UniProt P13569, DEL508-508)

>  <Experimental result>
6.96

$$$$
>  <Compound>
COCCN(C)S(=O)(=O)NC(=O)c1cc(N2CCC(N3CCOCC3)CC2)c2c(C3CCC3)nn(-c3ccc(F)cc3)c2n1 [Compound 471]

>  <Test target>
ΔF508-CFTR (Homo sapiens, UniProt P13569, DEL508-508)

>  <Experimental result>
6.91

$$$$
>  <Compound>
COCC(COC)Oc1cc(C(=O)NS(C)(=O)=O)nc2c1c(C(C)C)nn2-c1ccc(F)cc1 [Compound 311]

>  <Test target>
ΔF508-CFTR (Homo sapiens, UniProt P13569, DEL508-508)

>  <Experimental result>
5.97

$$$$
>  <Compound>
COC[C@H]1CCCN1S(=O)(=O)NC(=O)c1cc(N2CCC(N3CCOCC3)CC2)c2c(C3CCC3)nn(-c3ccc(F)cc3)c2n1 [Compound 577]

>  <Test target>
ΔF508-CFTR (Homo sapiens, UniProt P13569, DEL508-508)

>  <Experimental result>
6.98

$$$$
>  <Compound>
COCC1CCN(S(=O)(=O)NC(=O)c2cc(N3CCC(N4CCOCC4)CC3)c3c(C4CCC4)nn(-c4ccc(F)cc4)c3n2)CC1 [Compound 540]

>  <Test target>
ΔF508-CFTR (Homo sapiens, UniProt P13569, DEL508-508)

>  <Experimental result>
6.99

$$$$
>  <Compound>
CC(C)Oc1nn(C2CCCCC2)c2nc(C(=O)NS(C)(=O)=O)cc(-c3ccc(CN4CCOCC4)cc3)c12 [Compound 404]

>  <Test target>
ΔF508-CFTR (Homo sapiens, UniProt P13569, DEL508-508)

>  <Experimental result>
6.90

$$$$
>  <Compound>
CC(C)c1nn(-c2cccc(C(F)(F)F)c2)c2nc(C(=O)NS(C)(=O)=O)cc(-c3ccc(N4CCC(C#N)CC4)nc3)c12 [Compound 124]

>  <Test target>
ΔF508-CFTR (Homo sapiens, UniProt P13569, DEL508-508)

>  <Experimental result>
6.51

$$$$

Entry CCS(=O)(=O)NC(=O)c1cc(-c2cnc(N3CCOCC3)nc2)c2c(C(C)C)nn(-c3ccccc3)c2n1 [Compound 112] , system ΔF508-CFTR (Homo sapiens, UniProt P13569, DEL508-508): what pEC50 was measured? 6.05

Entry CC(C)c1nn(C2CCCOC2)c2nc(C(=O)NS(C)(=O)=O)cc(-c3ccc(N4CCOCC4)cc3)c12 (centres unmarked) [Compound 39] , system ΔF508-CFTR (Homo sapiens, UniProt P13569, DEL508-508): what pEC50 was measured? 6.29

Entry C[C@H]1CN(c2cc(C(=O)NS(=O)(=O)N(C)C)nc3c2c(C2CCC2)nn3C2CCCCC2)CCN1Cc1ccccc1 [Compound 581] , system ΔF508-CFTR (Homo sapiens, UniProt P13569, DEL508-508): what pEC50 was measured? 6.12

Entry Cc1cc(N2CCN(c3cc(C(=O)NS(=O)(=O)N(C)C)nc4c3c(C3CCC3)nn4C3CCCCC3)CC2)ccn1 [Compound 535] , system ΔF508-CFTR (Homo sapiens, UniProt P13569, DEL508-508): what pEC50 was measured? 5.90

Entry CC(C)c1nn(-c2cccc(N3CCOCC3)c2)c2nc(C(=O)NS(C)(=O)=O)cc(-c3cnc(N(C)C)nc3)c12 [Compound 29] , system ΔF508-CFTR (Homo sapiens, UniProt P13569, DEL508-508): what pEC50 was measured? 6.08

Entry C#CCCS(=O)(=O)NC(=O)c1cc(-c2ccc(N=[N+]=[N-])cc2)c2c(C(C)C)nn(-c3cccc(N(C)C)c3)c2n1 [Compound 363] , system ΔF508-CFTR (Homo sapiens, UniProt P13569, DEL508-508): what pEC50 was measured? 6.93
